- experiment_description: Comments (NB not yet translated). [column 'COMMENTAIRES' in source]
- particulars: human
quantity_name: Hepatotoxicity (comment)

INSERT INTO assay_data (compound, quantity_name, endpoint_value) VALUES
  ('C#CCN(C)[C@H](C)Cc1ccccc1 [SELEGILINE]', 'Hepatotoxicity (comment)', 'CHOLESTASE_PROLONGEE'),
  ('Cc1c(C)c2c(c(C)c1O)CCC(C)(COc1ccc(CC3SC(=O)NC3=O)cc1)O2 (centres undefined) [TROGLITAZONE]', 'Hepatotoxicity (comment)', 'CHOLESTASE_PROLONGEE'),
  ('CC(=O)N1CCN(c2ccc(OCC3COC(Cn4ccnc4)(c4ccc(Cl)cc4Cl)O3)cc2)CC1 (centres undefined) [KETOCONAZOLE]', 'Hepatotoxicity (comment)', 'CHOLESTASE_PROLONGEE');

---

# key: entry, value: Hepatotoxicity (moderate)
- experiment_description: Highest frequency of moderate liver toxicity observed during clinical trials, expressed as a percentage. [column '% BIOL' in source]
- particulars: human
quantity_name: Hepatotoxicity (moderate) (%)

INSERT INTO assay_data (molecule, quantity_name, endpoint_value) VALUES
  ('O=c1ccc2ccccc2o1 [COUMARIN]', 'Hepatotoxicity (moderate)', 8.7),
  ('CN1CCN(CCCN2c3ccccc3Sc3ccc(S(=O)(=O)N(C)C)cc32)CC1 [THIOPROPERAZINE]', 'Hepatotoxicity (moderate)', 0),
  ('O=C(O)Cn1c(=O)n(Cc2ccc(Br)cc2F)c(=O)c2ccc(Cl)cc21 [ZENARESTAT]', 'Hepatotoxicity (moderate)', 9.5),
  ('NS(=O)(=O)c1cc2c(cc1Cl)N=CNS2(=O)=O [CHLOROTHIAZIDE]', 'Hepatotoxicity (moderate)', 0),
  ('COc1cccc(C2(O)CCCCC2CN(C)C)c1 (stereo unspecified) [TRAMADOL]', 'Hepatotoxicity (moderate)', 0),
  ('C[C@H]1O[C@H](O[C@H]2[C@H](O)[C@@H](O)[C@@H](O[C@H]3[C@H](O)[C@@H](O)C(O)O[C@@H]3CO)O[C@@H]2CO)[C@H](O)[C@@H](O)[C@@H]1N[C@H]1C=C(CO)[C@@H](O)[C@H](O)[C@H]1O (stereo partly specified) [ACARBOSE]', 'Hepatotoxicity (moderate)', 9.9),
  ('Cc1cc2c(C(C)C)c(O)c(O)c(C=O)c2c(O)c1-c1c(C)cc2c(C(C)C)c(O)c(O)c(C=O)c2c1O [GOSSYPOL]', 'Hepatotoxicity (moderate)', 93),
  ('CC(=O)N[C@H]1[C@@H](O[C@H]2[C@H](O)[C@@H](O)[C@H](O[C@H]3[C@H](CS(=O)(=O)O)[C@@H](OS(=O)(=O)O)[C@@H](O[C@H]4[C@H](O)[C@@H](OS(=O)(=O)O)C(O)O[C@H]4C(=O)O)O[C@@H]3O)O[C@@H]2C(=O)O)O[C@H](COS(=O)(=O)O)[C@@H](O)[C@@H]1O (stereo partly specified) [SODIUM HEPARIN]', 'Hepatotoxicity (moderate)', 90),
  ('CC(Cc1ccccc1)NN (stereo unspecified) [PHENIPRAZINE]', 'Hepatotoxicity (moderate)', 0),
  ('C[C@@H](O)[C@H]1C(=O)N2C(C(=O)O)=C([C@H]3CCCO3)S[C@H]12 [FAROPENEM]', 'Hepatotoxicity (moderate)', 20),
  ('O=C1C(O)=C([C@H]2CC[C@H](c3ccc(Cl)cc3)CC2)C(=O)c2ccccc21 [ATOVAQUONE]', 'Hepatotoxicity (moderate)', 16),
  ('C[C@H]1COc2c(N3CCN(C)CC3)c(F)cc3c(=O)c(C(=O)O)cn1c23.C[C@H]1COc2c(N3CCN(C)CC3)c(F)cc3c(=O)c(C(=O)O)cn1c23.O [LEVOFLOXACIN]', 'Hepatotoxicity (moderate)', 30),
  ('COc1ccc2cc(CCC(C)=O)ccc2c1 [NABUMETONE]', 'Hepatotoxicity (moderate)', 4.5),
  ('COc1cccc2c1C(=O)c1c(O)c3c(c(O)c1C2=O)C[C@@](O)(C(=O)CO)C[C@@H]3O[C@H]1C[C@H](N)[C@H](O)[C@H](C)O1 [DOXORUBICIN]', 'Hepatotoxicity (moderate)', 84.6),
  ('CCCCC(C)(O)C/C=C/[C@H]1[C@H](O)CC(=O)[C@@H]1CCCCCCC(=O)OC (stereo partly specified) [MISOPROSTOL]', 'Hepatotoxicity (moderate)', 16.7),
  ('CC(=O)CCC1C(=O)N(c2ccccc2)N(c2ccccc2)C1=O [KEBUZONE]', 'Hepatotoxicity (moderate)', 26.7),
  ('CC(C)=CCC1C(=O)N(c2ccccc2)N(c2ccccc2)C1=O [FEPRAZONE]', 'Hepatotoxicity (moderate)', 0),
  ('Cc1[nH]cnc1CSCCNc1ncc(Cc2ccc3c(c2)OCO3)c(=O)[nH]1 [OXMETIDINE]', 'Hepatotoxicity (moderate)', 0),
  ('CNC(=O)c1c(I)c(C(=O)NCC(=O)Nc2c(I)c(C(=O)O)c(I)c(C(=O)NCCO)c2I)c(I)c(N(C)C(C)=O)c1I [IOXAGLIC ACID]', 'Hepatotoxicity (moderate)', 0),
  ('COC(=O)C1=C(C)NC(C)=C(C(=O)OC)C1c1ccccc1[N+](=O)[O-] [NIFEDIPINE]', 'Hepatotoxicity (moderate)', 12),
  ('CC(O)CCC(=O)c1ccoc1 (stereo unspecified)', 'Hepatotoxicity (moderate)', 0),
  ('CC(C)(S)[C@@H](N)C(=O)O [PENICILLAMINE]', 'Hepatotoxicity (moderate)', 6),
  ('CCOC(=O)[C@H](CCc1ccccc1)N[C@@H](C)C(=O)N1Cc2ccccc2C[C@H]1C(=O)O', 'Hepatotoxicity (moderate)', 10),
  ('Fc1ccc([C@@H]2CCNC[C@H]2COc2ccc3c(c2)OCO3)cc1 [PAROXETINE]', 'Hepatotoxicity (moderate)', 11),
  ('CO[C@H]1/C=C/O[C@@]2(C)Oc3c(C)c(O)c4c(O)c(cc(O)c4c3C2=O)NC(=O)/C(C)=C\C=C\[C@H](C)[C@H](O)[C@@H](C)[C@@H](O)[C@@H](C)[C@H](OC(C)=O)[C@@H]1C [RIFAMYCIN]', 'Hepatotoxicity (moderate)', 10),
  ('O=C(O)c1ccccc1C(=O)Nc1ccc(S(=O)(=O)Nc2nccs2)cc1 [PHTHALYLSULFATHIAZOLE]', 'Hepatotoxicity (moderate)', 0),
  ('CO/N=C(\C(=O)N[C@@H]1C(=O)N2C(C(=O)[O-])=C(C[N+]34CCC(C(N)=O)(CC3)CC4)CS[C@H]12)c1nsc(N)n1 [CEFCLIDIN]', 'Hepatotoxicity (moderate)', 40),
  ('CC(=O)N[C@H]1[C@H]([C@H](O)[C@H](O)CO)OC(C(=O)O)=C[C@@H]1N=C(N)N [ZANAMIVIR]', 'Hepatotoxicity (moderate)', 14.5),
  ('C#CCN(C)[C@H](C)Cc1ccccc1 [SELEGILINE]', 'Hepatotoxicity (moderate)', 4),
  ('CCN(CCCc1ccccc1)CCCc1ccccc1 [ALVERINE]', 'Hepatotoxicity (moderate)', 0),
  ('CCN(CC)CCCC(C)Nc1ccnc2cc(Cl)ccc12 (stereo unspecified) [CHLOROQUINE]', 'Hepatotoxicity (moderate)', 0);

---

# key: entry, value: Hepatotoxicity (moderate)
- particulars: human, serum
quantity_name: Hepatotoxicity (moderate)

INSERT INTO measurements (molecule, quantity_name, endpoint_value) VALUES
  ('CCCCCCCCCCC[C@@H](C[C@@H]1OC(=O)[C@H]1CCCCCC)OC(=O)[C@H](CC(C)C)NC=O [ORLISTAT]', 'Hepatotoxicity (moderate)', 0),
  ('Nc1ncn([C@@H]2O[C@H](CO)[C@@H](O)[C@H]2O)c(=O)n1 [AZACITIDINE]', 'Hepatotoxicity (moderate)', 5),
  ('CC(C)Nc1cccnc1N1CCN(C(=O)c2cc3cc(NS(C)(=O)=O)ccc3[nH]2)CC1 [DELAVIRDINE]', 'Hepatotoxicity (moderate)', 2),
  ('O=C(O)CCCc1ccc(N(CCCl)CCCl)cc1 [CHLORAMBUCIL]', 'Hepatotoxicity (moderate)', 1),
  ('CCC[C@@H]1C[C@@H](C(=O)N[C@@H]([C@H]2O[C@H](SC)[C@H](O)[C@@H](O)[C@H]2O)[C@H](C)Cl)N(C)C1 [CLINDAMYCIN]', 'Hepatotoxicity (moderate)', 15),
  ('Sc1ncnc2nc[nH]c12 [MERCAPTOPURINE ANHYDROUS]', 'Hepatotoxicity (moderate)', 13),
  ('CCCN1CCO[C@@H]2c3cc(O)ccc3CC[C@H]21 [NAXAGOLIDE]', 'Hepatotoxicity (moderate)', 1),
  ('CCN(CC)C(=O)N1CCN(C)CC1 [DIETHYLCARBAMAZINE]', 'Hepatotoxicity (moderate)', 1),
  ('CCC1(C)CC(=O)NC1=O (centres undefined) [ETHOSUXIMIDE]', 'Hepatotoxicity (moderate)', 2);
